Data provenance is patent US20230091225A1.

What inhibition at 0.1 µM was measured for each of the following?
# Measured target: androgen receptor (AR) (Homo sapiens, UniProt P10275)
# Sequence (P10275 whole entry): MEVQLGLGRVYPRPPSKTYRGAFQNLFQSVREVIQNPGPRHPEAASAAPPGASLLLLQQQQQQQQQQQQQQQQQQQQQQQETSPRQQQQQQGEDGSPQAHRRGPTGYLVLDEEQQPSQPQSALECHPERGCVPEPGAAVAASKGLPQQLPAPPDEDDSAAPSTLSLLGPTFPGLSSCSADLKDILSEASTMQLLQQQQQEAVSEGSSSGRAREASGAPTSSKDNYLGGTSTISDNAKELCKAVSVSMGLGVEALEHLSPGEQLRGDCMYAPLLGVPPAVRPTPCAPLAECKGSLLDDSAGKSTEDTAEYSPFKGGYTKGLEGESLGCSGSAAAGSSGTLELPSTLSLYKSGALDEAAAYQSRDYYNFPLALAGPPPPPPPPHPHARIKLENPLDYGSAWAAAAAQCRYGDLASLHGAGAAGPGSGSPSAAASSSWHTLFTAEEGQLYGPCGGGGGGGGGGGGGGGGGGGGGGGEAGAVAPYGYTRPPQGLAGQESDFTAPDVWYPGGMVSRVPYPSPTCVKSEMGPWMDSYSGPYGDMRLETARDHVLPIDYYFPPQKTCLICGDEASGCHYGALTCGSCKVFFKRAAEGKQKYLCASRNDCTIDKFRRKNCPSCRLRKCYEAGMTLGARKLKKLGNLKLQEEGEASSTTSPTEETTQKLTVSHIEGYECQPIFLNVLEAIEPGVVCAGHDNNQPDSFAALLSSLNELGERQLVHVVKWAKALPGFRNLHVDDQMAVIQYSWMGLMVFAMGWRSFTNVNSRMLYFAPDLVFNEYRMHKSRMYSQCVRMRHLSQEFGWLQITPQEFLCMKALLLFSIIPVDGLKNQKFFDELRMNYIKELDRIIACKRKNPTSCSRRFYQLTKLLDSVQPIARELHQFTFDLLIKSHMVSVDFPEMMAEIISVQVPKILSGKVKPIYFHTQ
# Assay explanation: Degradation of androgen receptor (AR) protein in VCaP cells by Western blot
# Assay type: cell-based
# Condition notes: percentage of degraded AR at 100 nM, VCaP cells, 16 h

Check out these entries, answers already filled in.
Molecule	inhibition at 0.1 µM
CC1(C)[C@H](Oc2ccc(C#N)c(Cl)c2)C(C)(C)[C@H]1N1Cc2nc(C#CC3CC(NC4CCN(c5ccc6c(c5)C(=O)N(C5CCC(=O)NC5=O)C6=O)CC4)C3)ccc2C1=O (some centres unmarked) [Compound 327]	50 to 79%
N#Cc1ccc(O[C@H]2CC[C@H](NC(=O)c3cnc(N4C[C@@H]5[C@@H](CN6CCN(c7ccc8c(c7)C(=O)N(C7CCC(=O)NC7=O)C8=O)CC6)[C@@H]5C4)cn3)CC2)cc1Cl (some centres unmarked) [Compound 177]	50 to 79%
N#Cc1ccc(O[C@H]2CC[C@H](NC(=O)c3ccc(N4CCC(CN5CCC(Nc6cc7c(cc6F)C(=O)N(C6CCC(=O)NC6=O)C7=O)CC5)CC4)nn3)CC2)cc1Cl (some centres unmarked) [Compound 139]	> 80%
N#Cc1ccc(O[C@H]2CC[C@H](NC(=O)c3cnc(N4CCN(C(=O)O[C@H]5C[C@@H]6CN(c7ccc8c(c7)C(=O)N(C7CCC(=O)NC7=O)C8=O)C[C@@H]6C5)CC4)cn3)CC2)cc1Cl (some centres unmarked) [Compound 301]	50 to 79%

Next, consider the following molecule.
### Prompt What measured inhibition at 0.1 µM is associated with CC1(C)[C@H](NC(=O)c2ccc(N3CCC(NC4CCN(c5cc6c(cc5F)C(=O)N(C5CCC(=O)NC5=O)C6=O)CC4)CC3)nn2)C(C)(C)[C@H]1Oc1ccc(C#N)c(Cl)c1 (some centres unmarked) [Compound 291] on androgen receptor (AR) (Homo sapiens, UniProt P10275)?
### Response 50 to 79%
